Procedure Details: NCI Yeast Anticancer Drug Screen. Data for the rad52 strain (AID 147)
Measurement Setup: S. cerevisiae rad52 mutant growth inhibition; at 33.0 µM; hits give high values
Protocol: Growth inhibition of yeast strains with defined genetic alterations is measured as a screen for potential anti-cancer activity. Selected strains with alterations in DNA damage repair or cell cycle control were exposed to compounds and growth inhibition was measured relative to vehicle treated controls. The strain used in this assay is rad52
The panel holds about 79,000 compounds, 15% with a hit somewhere; the sample as a whole holds those more often.
just bin them by growth inhibition: low: < 20%; mid: ≥ 20% and < 90%; high: ≥ 90%

INPUT: Just checking, what class would you give COC(=O)CSc1nnc(CSc2ccc(Cl)cc2)n1-c1ccccc1 here?
OUTPUT: low

INPUT: Just checking, what class would you give CN(C)c1ccc(/C=C/c2ccnc3ccccc23)cc1N here?
OUTPUT: low

INPUT: Just checking, what class would you give S=C1SCN(CCc2ccccc2)CN1CCc1ccccc1 here?
OUTPUT: mid

INPUT: Just checking, what class would you give CCCCCCCCCCCCCCCCCCNC(=S)/N=C\C1=C(O)c2ccccc2C1=O here?
OUTPUT: low

INPUT: Just checking, what class would you give O=c1[nH]c2ccccc2c2nc3ccccc3n12 here?
OUTPUT: mid

INPUT: Just checking, what class would you give S=c1nc(Cl)cc2[nH]c(Cl)cn12 here?
OUTPUT: mid

INPUT: Just checking, what class would you give CC(=O)c1cc2c(Cl)cc(Cl)cc2oc1=O here?
OUTPUT: low

INPUT: Just checking, what class would you give O=C1C=CC(=O)N1c1ccc(I)cc1 here?
OUTPUT: high

INPUT: Just checking, what class would you give Nc1nc(F)nc2c1ncn2C1OC(COP(=O)(O)O)C(O)C1O (configuration not stated) here?
OUTPUT: mid

INPUT: Just checking, what class would you give CCCCCCCCCCCc1nc(N)n[nH]1 here?
OUTPUT: mid

INPUT: Just checking, what class would you give Cc1ccc2c(ccc(/C=C/c3ccc(O)c4ncccc34)[n+]2C)c1 here?
OUTPUT: high

---

Procedure Details: NCI Yeast Anticancer Drug Screen. Data for the mec2-1 strain (AID 157)
Measurement Setup: S. cerevisiae mec2-1 strain, at 50.0 µM, hits give high values
The panel holds about 79,000 compounds, 15% with a hit somewhere; the sample as a whole holds those more often.
Mark True for reported growth inhibition of 90% or greater; mark False for anything smaller.

INPUT: Textbook exercise: given the entry Cc1cccc(/C=N\NC(=S)N2CCCCC2)n1 , state whether its growth inhibition is greater than or equal to 90%.
OUTPUT: True

INPUT: Textbook exercise: given the entry NCc1c(O)ccc2ccccc12 , state whether its growth inhibition is greater than or equal to 90%.
OUTPUT: False

INPUT: Textbook exercise: given the entry O=C(Nc1ccc2c(c1)Cc1c-2ccc([N+](=O)[O-])c1F)C(F)(F)F , state whether its growth inhibition is greater than or equal to 90%.
OUTPUT: False

INPUT: Textbook exercise: given the entry C=C(C)[C@@H]1CCc2c(O)c(O)c(=O)cc(C)c2C1 , state whether its growth inhibition is greater than or equal to 90%.
OUTPUT: True

INPUT: Textbook exercise: given the entry O=C(/C=C/c1cccc2ccccc12)c1ccc(Cl)cc1 , state whether its growth inhibition is greater than or equal to 90%.
OUTPUT: False

INPUT: Textbook exercise: given the entry CC1=CCC(C(C)(C)c2ccc(O)cc2)CC1 (stereo unspecified) , state whether its growth inhibition is greater than or equal to 90%.
OUTPUT: True

INPUT: Textbook exercise: given the entry Cc1ccc(S(=O)(=O)N/N=C/C2(c3ccccc3)c3ccccc3-c3ccccc32)cc1 , state whether its growth inhibition is greater than or equal to 90%.
OUTPUT: False

INPUT: Textbook exercise: given the entry CCN(CC)N=Nc1c(C(N)=O)n[nH]c1C , state whether its growth inhibition is greater than or equal to 90%.
OUTPUT: False

INPUT: Textbook exercise: given the entry CC1(C)C(C=O)=CCC1CC(N)=O (stereo unspecified) , state whether its growth inhibition is greater than or equal to 90%.
OUTPUT: True

INPUT: Textbook exercise: given the entry COC(=O)c1oc([N+](=O)[O-])c(Cl)c1Cl , state whether its growth inhibition is greater than or equal to 90%.
OUTPUT: True

INPUT: Textbook exercise: given the entry CCCc1[nH]nc(C(N)=O)c1N=NN(C)C , state whether its growth inhibition is greater than or equal to 90%.
OUTPUT: False

INPUT: Textbook exercise: given the entry COc1ccc(N=N/C(=N\NC(=O)c2cc(Br)ccc2O)c2ccc(N(CCC#N)CCC#N)cc2OC)cc1 , state whether its growth inhibition is greater than or equal to 90%.
OUTPUT: False

INPUT: Textbook exercise: given the entry COc1ccc(/C=C2\SC(=S)N(C=C3C(=O)NC(=S)NC3=O)C2=O)cc1OC , state whether its growth inhibition is greater than or equal to 90%.
OUTPUT: False

INPUT: Textbook exercise: given the entry CN(C)Cc1cccc(CN(C)C)[c]1[Sn]([Br])([c]1ccccc1)[c]1ccccc1 , state whether its growth inhibition is greater than or equal to 90%.
OUTPUT: False

INPUT: Textbook exercise: given the entry Cc1ccccc1NC(=O)Cc1csc(N/N=C2\NC(=O)/C(=C/c3cccc([N+](=O)[O-])c3)S2)n1 , state whether its growth inhibition is greater than or equal to 90%.
OUTPUT: False

INPUT: Textbook exercise: given the entry Nc1nc(F)nc2c1ncn2C1OC(COP(=O)(O)O)C(O)C1O (stereo unspecified) , state whether its growth inhibition is greater than or equal to 90%.
OUTPUT: False

INPUT: Textbook exercise: given the entry O=C1C=CC(=O)N1c1ccc(N2C(=O)C=CC2=O)cc1 , state whether its growth inhibition is greater than or equal to 90%.
OUTPUT: True

INPUT: Textbook exercise: given the entry Cc1ccc(CNc2ccc(Br)cc2)cc1 , state whether its growth inhibition is greater than or equal to 90%.
OUTPUT: False

INPUT: Textbook exercise: given the entry CCCCCCCCCCCCCCCCNC(=O)/C(=C\c1ccc(Cl)c(Cl)c1)NC(=O)c1ccccc1 , state whether its growth inhibition is greater than or equal to 90%.
OUTPUT: True

INPUT: Textbook exercise: given the entry Cc1cc(O)c2c(c1O)C(=O)C13C(=C2O)C(=O)C2C(O)C1C1C(O)C3C(=O)C3=C(O)c4c(O)cc(C)c(O)c4C(=O)C321 (stereo unspecified) , state whether its growth inhibition is greater than or equal to 90%.
OUTPUT: False

INPUT: Textbook exercise: given the entry COC(=O)c1cccc(C)c1C(=O)c1c(C)cc(C)cc1C , state whether its growth inhibition is greater than or equal to 90%.
OUTPUT: False

INPUT: Textbook exercise: given the entry CC(=O)CC(=O)/C=C/c1cccs1 , state whether its growth inhibition is greater than or equal to 90%.
OUTPUT: False

INPUT: Textbook exercise: given the entry COC(=O)c1ccc2c(c1)Cc1ccccc1-2 , state whether its growth inhibition is greater than or equal to 90%.
OUTPUT: False

INPUT: Textbook exercise: given the entry Cn1c2nc3ccccc3c-2nc2ccccc21 , state whether its growth inhibition is greater than or equal to 90%.
OUTPUT: True

INPUT: Textbook exercise: given the entry O=C(NC(=S)Nc1ccccn1)c1ccccc1 , state whether its growth inhibition is greater than or equal to 90%.
OUTPUT: False

INPUT: Textbook exercise: given the entry Nc1nc(N)c2c(n1)CCC(S(=O)(=O)c1ccc3ccccc3c1)C2 (stereo unspecified) , state whether its growth inhibition is greater than or equal to 90%.
OUTPUT: False

INPUT: Textbook exercise: given the entry CCOC(=O)[C@]1(Br)CC[C@@]1(Br)C(=O)OCC , state whether its growth inhibition is greater than or equal to 90%.
OUTPUT: True

INPUT: Textbook exercise: given the entry Cc1cccc2c1N=C(C(F)(F)F)CC2=O , state whether its growth inhibition is greater than or equal to 90%.
OUTPUT: False

INPUT: Textbook exercise: given the entry CC1C(C#N)(C#N)C(C#N)=C(N)C1(Cl)[N+](=O)[O-] (stereo unspecified) , state whether its growth inhibition is greater than or equal to 90%.
OUTPUT: False

INPUT: Textbook exercise: given the entry COC(=O)CSc1nnc(CSc2ccc(Cl)cc2)n1-c1ccccc1 , state whether its growth inhibition is greater than or equal to 90%.
OUTPUT: False

INPUT: Textbook exercise: given the entry C=Cc1cnc([N+](=O)[O-])n1C , state whether its growth inhibition is greater than or equal to 90%.
OUTPUT: False

INPUT: Textbook exercise: given the entry Cc1cc(Cl)ccc1NC(=O)/C(Cl)=C1/Sc2ccccc2NC1=O , state whether its growth inhibition is greater than or equal to 90%.
OUTPUT: False

INPUT: Textbook exercise: given the entry O=[N+]([O-])c1cccc2nc3ccccc3c(NCCc3cccc[n+]3[O-])c12 , state whether its growth inhibition is greater than or equal to 90%.
OUTPUT: False

INPUT: Textbook exercise: given the entry Nc1ccc(S(=O)(=O)Nc2ccc(Nc3c4ccccc4nc4ccccc34)cc2)cc1 , state whether its growth inhibition is greater than or equal to 90%.
OUTPUT: False

INPUT: Textbook exercise: given the entry O=S(=O)(N/N=C/c1cccc(Cl)c1)c1ccccc1 , state whether its growth inhibition is greater than or equal to 90%.
OUTPUT: False

INPUT: Textbook exercise: given the entry S=P(N1CC1)(N1CC1)N1CC1 , state whether its growth inhibition is greater than or equal to 90%.
OUTPUT: False

INPUT: Textbook exercise: given the entry OC(CN1CCCCC1)c1cc(Cl)c(Cl)c(Cl)c1 (stereo unspecified) , state whether its growth inhibition is greater than or equal to 90%.
OUTPUT: False
